Each entry below carries its measured IC50, system: human lysosomal acid-α-glucosidase (Homo sapiens, UniProt P10253).
State the answer as a number, implicitly in µM.

Input line: Looking for the measured IC50 of Cc1cccc(C[C@@H]2C[C@@H]3C(=O)N(C)C4(C[C@H](C)CC[C@H]4C(C)C)N3O2)c1OCC(=O)NNC(=O)Nc1cccc(Cl)c1 (stereo partly drawn) , can you help?
Output line: 121

Input line: Endpoint output: IC50 of Cc1cccc(C[C@@H]2C[C@@H]3C(=O)N(C)C4(C[C@H](C)CC[C@H]4C(C)C)N3O2)c1OCC(=O)NNC(=O)Nc1ccc(F)cc1 (stereo partly drawn) . Value?
Output line: 152

Input line: Which IC50 value is on record for Cc1cccc(C[C@@H]2C[C@@H]3C(=O)N(C)C4(C[C@H](C)CC[C@H]4C(C)C)N3O2)c1OCC(=O)NNC(=O)Nc1cccc2ccccc12 (stereo partly drawn) ?
Output line: 94.3

----------
Sequence of the target: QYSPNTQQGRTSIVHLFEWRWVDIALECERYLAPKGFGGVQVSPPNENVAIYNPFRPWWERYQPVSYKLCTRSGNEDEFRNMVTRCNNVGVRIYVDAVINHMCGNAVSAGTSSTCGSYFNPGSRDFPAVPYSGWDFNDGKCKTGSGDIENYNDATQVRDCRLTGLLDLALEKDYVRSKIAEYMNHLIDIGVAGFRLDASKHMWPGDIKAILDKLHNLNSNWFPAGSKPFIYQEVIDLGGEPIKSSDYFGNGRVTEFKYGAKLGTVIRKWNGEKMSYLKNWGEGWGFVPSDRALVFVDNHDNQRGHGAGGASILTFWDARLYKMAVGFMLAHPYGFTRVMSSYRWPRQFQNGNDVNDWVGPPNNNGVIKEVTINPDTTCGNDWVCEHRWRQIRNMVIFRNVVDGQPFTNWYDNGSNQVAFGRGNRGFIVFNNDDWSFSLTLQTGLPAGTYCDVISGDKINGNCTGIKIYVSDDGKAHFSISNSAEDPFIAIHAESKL
assay metric: Ki (µM)
Number in µM, nothing else.

Input line: Which Ki is listed for Cc1cccc(C[C@@H]2C[C@@H]3C(=O)N(C)C4(C[C@H](C)CC[C@H]4C(C)C)N3O2)c1OCC(=O)NNC(=O)Nc1cccc2ccccc12 (stereo partly shown) ?
Output line: 31.9
